Biological target: Gastrin/cholecystokinin type B receptor (Mus musculus)
Sequence (P56481 whole entry): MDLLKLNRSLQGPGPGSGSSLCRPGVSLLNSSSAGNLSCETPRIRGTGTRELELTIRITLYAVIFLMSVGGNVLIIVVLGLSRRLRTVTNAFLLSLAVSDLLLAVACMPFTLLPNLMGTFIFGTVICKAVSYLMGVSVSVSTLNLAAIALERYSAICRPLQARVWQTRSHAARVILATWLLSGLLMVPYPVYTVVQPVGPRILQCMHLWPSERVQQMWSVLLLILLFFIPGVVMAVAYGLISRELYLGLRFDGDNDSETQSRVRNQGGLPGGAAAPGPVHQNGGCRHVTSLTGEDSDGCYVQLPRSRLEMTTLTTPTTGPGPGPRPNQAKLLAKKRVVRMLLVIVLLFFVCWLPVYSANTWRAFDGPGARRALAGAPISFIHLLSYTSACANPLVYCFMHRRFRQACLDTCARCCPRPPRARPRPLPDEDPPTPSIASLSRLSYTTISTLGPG
Test: The concentration (nM) producing half-maximal inhibition of specific binding of [1251] Bolton Hunter CCK-8 to CCK receptors in the mouse cerebral cortex (CCK-B);value ranges from 3.0 to 8.1
Type: tissue-based
reported endpoint: IC50 (nM)
Number only, in nM; omit the unit.

Value wanted: IC50 (Gastrin/cholecystokinin type B receptor (Mus musculus)) of entry CC(Cc1c[nH]c2ccccc12)(NC(=O)OC1C2CC3CC(C2)CC1C3)C(=O)NC[C@H](NC(=O)CCc1nnn[nH]1)c1ccccc1 (single isomer, unassigned) 5.6
